Test system: BT474 cells
Experiment: BT474 cell proliferation, BrdU-labeling
Assay type: cell-based, human
Conditions: Homo sapiens, BT-474; compound titrated alone or with Protein #21 at 2 nM; read-out: cell proliferation inhibition constant IC50, BT474
readout_type: IC50 (nM)

[[record]]
compound = "Cc1nc(NC(=O)N2CCC[C@H]2C(N)=O)sc1-c1ccnc(C(C)(C)C(F)(F)F)c1 [Alpelisib]"
assay_result = 2540

[[record]]
compound = "Cc1c(CN2CCN(C(=O)[C@H](C)O)CC2)sc2c(N3CCOCC3)nc(-c3cnc(N)nc3)nc12 [Apitolisib]"
assay_result = 204

[[record]]
compound = "CC(=O)c1c(C)c2cnc(Nc3ccc(N4CCNCC4)cn3)nc2n(C2CCCC2)c1=O [Palbociclib]"
assay_result = 2600

[[record]]
compound = "Cc1nc(-c2cn3c(n2)-c2ccc(-c4cnn(C(C)(C)C(N)=O)c4)cc2OCC3)n(C(C)C)n1 [Taselisib]"
assay_result = 105


----------
Documented pIC50 across a set of compounds
Test system: BT474 cells
Test: BT474 cell proliferation, BrdU-labeling
Assay type: cell-based, human
Settings: Homo sapiens, BT-474; Protein #21 was titrated; Trametinib (10^−5 M), Cobimetinib (10^−5 M) or Salirasib (3*10^−5 M); read-out: cell proliferation inhibition constant IC50, BT474
pIC50: −log10 of the molar value.
readout_type: pIC50

[[record]]
compound_structure = "O=C(c1ccc(F)c(F)c1Nc1ccc(I)cc1F)N1CC(O)([C@@H]2CCCCN2)C1"
readout_type = "pIC50"
assay_result = 8.99

[[record]]
compound_structure = "CC(C)=CCC/C(C)=C/CC/C(C)=C/CSc1ccccc1C(=O)O"
readout_type = "pIC50"
assay_result = 9.03

[[record]]
compound_structure = "CC(=O)Nc1cccc(-n2c(=O)n(C3CC3)c(=O)c3c(Nc4ccc(I)cc4F)n(C)c(=O)c(C)c32)c1"
readout_type = "pIC50"
assay_result = 8.98


----------
System: BT474 cells
Test: BT474 cell proliferation, BrdU-labeling
Assay type: cell-based, human
Conditions: Homo sapiens, BT-474; compound alone or titrated on top of 2 nM Protein #21-His; read-out: cell proliferation inhibition constant IC50, BT474
readout_type: IC50 (nM)

[[record]]
compound_structure = "CS(=O)(=O)CCNCc1ccc(-c2ccc3ncnc(Nc4ccc(OCc5cccc(F)c5)c(Cl)c4)c3c2)o1"
unit = "nM"
assay_result = 765

[[record]]
compound_structure = "CS(=O)(=O)N1CCN(Cc2cc3nc(-c4cccc5[nH]ncc45)nc(N4CCOCC4)c3s2)CC1"
unit = "nM"
assay_result = 176

